Attribution: patent US6906205B2

Would you mind telling me the reported Survival (days) sc of each entry?
- System: ANKA strain of P. berghei
- Protocol summary: single dose STI in vivo screen in infected mice
- Design: species or system Plasmodium berghei
- Condition context: single 10 mg/kg sc in 3% ethanol and 7% Tween 80; untreated control 5.6 ± 0.3
Give just the number in days; leave the unit off.

Entry O=C(NC[C@H]1CC[C@]2(CC1)OOC1(O2)C2CC3CC(C2)CC1C3)c1ccccc1C(=O)NC[C@H]1CC[C@]2(CC1)OOC1(O2)C2CC3CC(C2)CC1C3 (some centres unmarked) , system ANKA strain of P. berghei: what Survival (days) sc was measured?
5.7

# returns recorded Survival (days) sc (system: ANKA strain of P. berghei) for O=S1(=O)CCC2(CC1)OOC1(O2)C2CC3CC(C2)CC1C3 (centres unmarked)
7.3

Given the entry CCOC(=O)CCC[C@H]1CC[C@]2(CC1)OOC1(O2)C2CC3CC(C2)CC1C3 (some centres unmarked) , what Survival (days) sc was observed with ANKA strain of P. berghei?
7.7

For ANKA strain of P. berghei, provide Survival (days) sc of O=S(=O)(C[C@H]1CC[C@]2(CC1)OOC1(O2)C2CC3CC(C2)CC1C3)c1ccccc1 (some centres unmarked) please.
10.3

# query: Survival (days) sc | item C1CC2(CCN1)OOC1(O2)C2CC3CC(C2)CC1C3.Cl (centres unmarked) | system: ANKA strain of P. berghei
7.7

What measured Survival (days) sc is associated with Fc1ccc(C2CCC3(CC2)OOC2(O3)C3CC4CC(C3)CC2C4)cc1 (centres unmarked) on ANKA strain of P. berghei?
10.7

# get_value(readout= Survival (days) sc, system= ANKA strain of P. berghei) for O=C(OCCn1ccnc1)C1CCC2(CC1)OOC1(O2)C2CC3CC(C2)CC1C3 (centres unmarked)
7.7

// map Fc1ccc(C2(c3ccc(F)cc3)OOC3(O2)C2CC4CC(C2)CC3C4)cc1 (centres unmarked) to recorded Survival (days) sc (system: ANKA strain of P. berghei)
8.3
